Origin of the recorded values: patent US20210253725A1

Readings of ELISA [abs. corr.] for the listed binders
Molecular target: T1, CD27 protein (His-tagged, Sino Biological Inc. 10039-H08B1) (human, UniProt P26842 20-192)
T1 construct: bought; coated onto ELISA plates; also called human CD27; recombinant protein; not shown: His tag
T1 sequence (looked up): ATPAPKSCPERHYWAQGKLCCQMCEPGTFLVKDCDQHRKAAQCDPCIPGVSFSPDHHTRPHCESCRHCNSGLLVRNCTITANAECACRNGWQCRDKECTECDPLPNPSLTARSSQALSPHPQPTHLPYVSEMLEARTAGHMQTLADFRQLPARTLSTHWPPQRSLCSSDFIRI
Test: ELISA on coated His-tagged CD27; note: test concentration or dose not given here
Write the number in abs. corr. without appending the unit.

Below are worked cases with known answers.
binder	ELISA [abs. corr.], abs. corr.
P018.S.10.A.A06 (antibody, V domains shown, V regions on human Ig constant parts; also called AB27_165) VH: QSVEESGGRLVTPGTPLTLTCTVSGFSLSGYHMCWVRQAPGKGLQYIGIIGSNGNTYYASWAKSRSTITRNTNENTVTLKMTSLTTEDTATYFCARSSGWGARFNLWGQGTLVTVSS VL: AQVLTQTPSSVSAAVGGTVTINCQASQSIYNDNELSWYQQKPGQPPKLLIYKASTLASGVPLRFSGSGSGTQFTLTISDVQSDVAATYYCLGGGMTPSDTTFGGGTEVVVK	3.18
P018.S.05.A.E04 (antibody, V domains shown, V regions on human Ig constant parts; also called AB27_90) VH: QEQLEESGGDLVKPEGSLTLTCTASGFSFSSYWICWVRQAPGKGLEWIACIATHSGTDFYASWAKGRFTISKTSSTTVTLQMTSLTAADTATYFCARDPYGFNGDYFSLWGPGTLVTVSS VL: ALVMTQTPASVSAAVGGTVTINCQASQSVYNSNYLSWYQQKPGQPPKLLIYKASTLASGVPSRFKGSGSGTQFTLTISGVESDDAATYYCAGYKSYTNDDNGFGGGTEVVVK	3.35
P018.S.03.A.C02 (antibody, V domains shown, V regions on human Ig constant parts; also called AB27_44) VH: QSVEESGGRLVTPGTPLTLTCTVSRFSLSTSTMTWVRQAPGKGLEWIGIINGGGSAYYANWAKGRFTISKTSTTVDLKITSPTTEDTATYFCARSYDSYDDIYGTSRLYAFDPWGPGTLVTVSS VL: AYDMTQTPASVEVVVGGTVTISCQASESIYANLAWYQQKPGQPPKLLIYRASYLASGVSSRFKGSGSGTQFTLTISGVESADAATYYCQQGYSSSNVDNSFGGGTEVVVK	3.36

Now let's try a different one.
// sample P018.S.07.A.C04 (antibody, V domains shown, V regions on human Ig constant parts; also called AB27_120) VH: QEQLVESGGGLVQPEGSLTLTCTASGFSFSSRFWICWVRQAPGKGLEWIACIYGGSTSATYDASWAKGRFTISKTSSTTVTLQMTSLTAADTATYFCTRLPTYDAYVFNLWGPGTLVTVSS VL: AIVMTQTPSSKSVPVGATATINCQASESVFSNNYLSWYQQKPGRSPKLLIYEASKLASGVPSRFSGSGSGTQFTLTISDVVSDDAATYYCGGYKSNNVDGYAFGGGTEVVVK , its ELISA [abs. corr.] was 3.45
